target: SNX27, Q96L92; test: holdup assay; set-up: key: below the threshold = too weak to quantify, mostly under pKd 3.1 to 4; settings: plain residues with an end cap or a label only (N-terminal biotin on a linker: ado-ado)

- binder: "QRPYRRGSEI [KCNJ18, B7U540]"
  pKd: "below the threshold"
- binder: "DFLSTFHIRI [CIB2, O75838]"
  pKd: "below the threshold"
- binder: "QKAPTKEFYA [SDC2, P34741]"
  pKd: "below the threshold"
